# assay-remarks: Single ascending dose study of Compound 2 in healthy volunteers (Part A): safety, tolerability, pharmacokinetic
# Format: in vivo, human
# measurement-parameters: both sexes, human, in vivo, 400 mg
experimental-readout: half-life (min)

1. CNc1nc(N)nc2c1ncn2[C@@H]1O[C@H](CO[P@@](=O)(N[C@@H](C)C(=O)OC(C)C)Oc2ccccc2)[C@@H](O)[C@@]1(C)F [Compound 1] | 51.6

---

# assay-remarks: in vitro
# measurement-parameters: rat
experimental-readout: half-life

1. CNc1nc(N)nc2c1ncn2[C@@H]1O[C@H](CO[P@@](=O)(N[C@@H](C)C(=O)OC(C)C)Oc2ccccc2)[C@@H](O)[C@@]1(C)F [Compound 1] | < 2 min

---

# assay-remarks: Single ascending dose study of Compound 2 in GT1-HCV infected patients (Part B): safety, tolerability, pharmacokinetic
# Type: in vivo, human
# measurement-parameters: human, in vivo, 100 mg, GT1-HCV infected patients; Compound 2 100 mg; mean±SD; based on 24-hr profile
experimental-readout: half-life (h)

1. C[C@@]1(F)[C@H](O)[C@@H](CO)O[C@H]1n1cnc2c(=O)[nH]c(N)nc21 [Metabolite 1-7] | 8.4

---

# assay-remarks: Single ascending dose study of Compound 2 in healthy volunteers (Part A): safety, tolerability, pharmacokinetic
# Type: in vivo, human
# measurement-parameters: both sexes, human, in vivo, 50 mg
experimental-readout: AUC (ng·h/mL)

1) CNc1nc(N)nc2c1ncn2[C@@H]1O[C@H](CO[P@@](=O)(N[C@@H](C)C(=O)OC(C)C)Oc2ccccc2)[C@@H](O)[C@@]1(C)F | 36.4

---

# assay-remarks: Plasma levels of metabolites following single oral doses of Compound 2, monkeys
# Assay type: in vivo, monkey
# measurement-parameters: monkey, plasma, po, 300 mg/kg
experimental-readout: AUC(0-t) (ng·h/mL)

1) CNc1nc(N)nc2c1ncn2[C@@H]1O[C@H](CO[P@@](=O)(N[C@@H](C)C(=O)OC(C)C)Oc2ccccc2)[C@@H](O)[C@@]1(C)F | 1600

---

# assay-remarks: Single ascending dose study of Compound 2 in GT1-HCV infected patients (Part B): safety, tolerability, pharmacokinetic
# Assay type: in vivo, human
# measurement-parameters: human, in vivo, 100 mg, GT1-HCV infected patients; Compound 2 100 mg; mean±SD
experimental-readout: AUC (ng·h/mL)

1) CNc1nc(N)nc2c1ncn2[C@@H]1O[C@H](CO[P@@](=O)(N[C@@H](C)C(=O)OC(C)C)Oc2ccccc2)[C@@H](O)[C@@]1(C)F [Compound 1] | 179

---

# assay-remarks: Plasma profiles of Compound 2 metabolites in monkeys
# Format: in vivo, cynomolgus monkeys
# measurement-parameters: cynomolgus monkey, plasma, po, 100 mg/kg
experimental-readout: half-life (h)

1. C[C@@]1(F)[C@H](O)[C@@H](CO)O[C@H]1n1cnc2c(=O)[nH]c(N)nc21 [Metabolite 1-7] | 15

---

# assay-remarks: Single ascending dose study of Compound 2 in GT1-HCV infected patients (Part B): safety, tolerability, pharmacokinetic
# Format: in vivo, human
# measurement-parameters: human, in vivo, 400 mg, GT1-HCV infected patients; Compound 2 400 mg; mean±SD
experimental-readout: half-life (h)

1) CNc1nc(N)nc2c1ncn2[C@@H]1O[C@H](CO[P@@](=O)(N[C@@H](C)C(=O)OC(C)C)Oc2ccccc2)[C@@H](O)[C@@]1(C)F [Compound 1] | 0.86
2) C[C@@]1(F)[C@H](O)[C@@H](CO)O[C@H]1n1cnc2c(=O)[nH]c(N)nc21 [Metabolite 1-7] | 11.6

---

# assay-remarks: Single ascending dose study of Compound 2 in healthy volunteers (Part A): safety, tolerability, pharmacokinetic
# Type: in vivo, human
# measurement-parameters: both sexes, human, plasma, oral, 200 mg
experimental-readout: AUC (ng·h/mL)

1. C[C@@]1(F)[C@H](O)[C@@H](CO)O[C@H]1n1cnc2c(=O)[nH]c(N)nc21 [Metabolite 1-7] | 1520

---

# assay-remarks: Plasma profiles of Compound 2 metabolites in rats
# measurement-parameters: male, Sprague-Dawley, rat, plasma, po, 500 mg/kg
experimental-readout: half-life (h)

1. C[C@@]1(F)[C@H](O)[C@@H](CO)O[C@H]1n1cnc2c(=O)[nH]c(N)nc21 [Metabolite 1-7] | 15.3

---

# assay-remarks: Single ascending dose study of Compound 2 in healthy volunteers (Part A): safety, tolerability, pharmacokinetic
# Format: in vivo, human
# measurement-parameters: both sexes, human, in vivo, 100 mg
experimental-readout: Cmax (ng/mL)

1) CNc1nc(N)nc2c1ncn2[C@@H]1O[C@H](CO[P@@](=O)(N[C@@H](C)C(=O)OC(C)C)Oc2ccccc2)[C@@H](O)[C@@]1(C)F [Compound 1] | 156

---

Item-by-item account of HPLC purity
# assay-remarks: Storage of Compound 1 forms and amorphous salts at 25° C./60% RH for 14 days (HPLC, XRPD, observation)
# measurement-parameters: 0 days at 25° C./60% RH
experimental-readout: HPLC purity

1. CNc1nc(N)nc2c1ncn2C1OC(COP(=O)(NC(C)C(=O)OC(C)C)Oc2ccccc2)C(O)C1(C)F.O=S(=O)(O)O (stereo not drawn) | 98.4
2. CNc1nc(N)nc2c1ncn2[C@@H]1O[C@H](CO[P@@](=O)(N[C@@H](C)C(=O)OC(C)C)Oc2ccccc2)[C@@H](O)[C@@]1(C)F [Sample 1-3] | 99.7
3. CNc1nc(N)nc2c1ncn2C1OC(COP(=O)(NC(C)C(=O)OC(C)C)Oc2ccccc2)C(O)C1(C)F.Cl (stereo not drawn) | 98.7
4. CNc1nc(N)nc2c1ncn2[C@@H]1O[C@H](CO[P@@](=O)(N[C@@H](C)C(=O)OC(C)C)Oc2ccccc2)[C@@H](O)[C@@]1(C)F [Sample 1-1] | 98.6
5. CNc1nc(N)nc2c1ncn2C1OC(COP(=O)(NC(C)C(=O)OC(C)C)Oc2ccccc2)C(O)C1(C)F.CNc1nc(N)nc2c1ncn2C1OC(COP(=O)(NC(C)C(=O)OC(C)C)Oc2ccccc2)C(O)C1(C)F.O=S(=O)(O)O (stereo not drawn) | 98.7
6. CNc1nc(N)nc2c1ncn2[C@@H]1O[C@H](CO[P@@](=O)(N[C@@H](C)C(=O)OC(C)C)Oc2ccccc2)[C@@H](O)[C@@]1(C)F [Sample 1-2] | 99.1

---

# assay-remarks: Plasma profiles of Compound 2 metabolites in monkeys
# Format: in vivo, cynomolgus monkeys
# measurement-parameters: cynomolgus monkey, plasma, po, 30 mg/kg
experimental-readout: half-life (h)

1) C[C@@]1(F)[C@H](O)[C@@H](CO)O[C@H]1n1cnc2c(=O)[nH]c(N)nc21 [Metabolite 1-7] | 11.5

---

# assay-remarks: Single ascending dose study of Compound 2 in healthy volunteers (Part A): safety, tolerability, pharmacokinetic
# Type: in vivo, human
# measurement-parameters: both sexes, human, plasma, oral, 50 mg
experimental-readout: Cmax (ng/mL)

1. C[C@@]1(F)[C@H](O)[C@@H](CO)O[C@H]1n1cnc2c(=O)[nH]c(N)nc21 [Metabolite 1-7] | 27.9

---

# assay-remarks: Single ascending dose study of Compound 2 in healthy volunteers (Part A): safety, tolerability, pharmacokinetic
# Format: in vivo, human
# measurement-parameters: both sexes, human, plasma, oral, 200 mg; read-out: C24h
experimental-readout: concentration at 24 h (ng/mL)

1) C[C@@]1(F)[C@H](O)[C@@H](CO)O[C@H]1n1cnc2c(=O)[nH]c(N)nc21 [Metabolite 1-7] | 13.7

---

# assay-remarks: Plasma levels of metabolites following single oral doses of Compound 2, dogs
# Format: in vivo, dog
# measurement-parameters: dog, plasma, po, 300 mg/kg
experimental-readout: Tmax (h)

1. CNc1nc(N)nc2c1ncn2[C@@H]1O[C@H](CO[P@@](=O)(N[C@@H](C)C(=O)OC(C)C)Oc2ccccc2)[C@@H](O)[C@@]1(C)F | 204

---

# assay-remarks: Plasma levels of metabolites following single oral doses of Compound 2, dogs
# Assay type: in vivo, dog
# measurement-parameters: dog, plasma, po, 100 mg/kg
experimental-readout: Cmax (ng/mL)

1. CNc1nc(N)nc2c1ncn2[C@@H]1O[C@H](CO[P@@](=O)(N[C@@H](C)C(=O)OC(C)C)Oc2ccccc2)[C@@H](O)[C@@]1(C)F | 8120

---

# assay-remarks: Storage of Compound 1 forms and amorphous salts at 25° C./60% RH for 14 days (HPLC, XRPD, observation)
# measurement-parameters: 14 days at 25° C./60% RH
experimental-readout: HPLC purity

1. CNc1nc(N)nc2c1ncn2C1OC(COP(=O)(NC(C)C(=O)OC(C)C)Oc2ccccc2)C(O)C1(C)F.CNc1nc(N)nc2c1ncn2C1OC(COP(=O)(NC(C)C(=O)OC(C)C)Oc2ccccc2)C(O)C1(C)F.O=S(=O)(O)O (centres unmarked) | 96.4
2. CNc1nc(N)nc2c1ncn2[C@@H]1O[C@H](CO[P@@](=O)(N[C@@H](C)C(=O)OC(C)C)Oc2ccccc2)[C@@H](O)[C@@]1(C)F [Sample 1-3] | 99.4
3. CNc1nc(N)nc2c1ncn2[C@@H]1O[C@H](CO[P@@](=O)(N[C@@H](C)C(=O)OC(C)C)Oc2ccccc2)[C@@H](O)[C@@]1(C)F [Sample 1-2] | 99.0
4. CNc1nc(N)nc2c1ncn2C1OC(COP(=O)(NC(C)C(=O)OC(C)C)Oc2ccccc2)C(O)C1(C)F.Cl (centres unmarked) | 98.6
5. CNc1nc(N)nc2c1ncn2[C@@H]1O[C@H](CO[P@@](=O)(N[C@@H](C)C(=O)OC(C)C)Oc2ccccc2)[C@@H](O)[C@@]1(C)F [Sample 1-1] | 98.5

Data origin: patent US20210087217A1
